Please go through the items and note down their self-splicing fitness (ln).
- protocol_summary: self-splicing fitness, log relative to wild type (ln ratio); higher = more splicing; Tetrahymena group I intron in knt gene, E. coli kanamycin selection, DiMSum; sequences stand for … in CUCUCU…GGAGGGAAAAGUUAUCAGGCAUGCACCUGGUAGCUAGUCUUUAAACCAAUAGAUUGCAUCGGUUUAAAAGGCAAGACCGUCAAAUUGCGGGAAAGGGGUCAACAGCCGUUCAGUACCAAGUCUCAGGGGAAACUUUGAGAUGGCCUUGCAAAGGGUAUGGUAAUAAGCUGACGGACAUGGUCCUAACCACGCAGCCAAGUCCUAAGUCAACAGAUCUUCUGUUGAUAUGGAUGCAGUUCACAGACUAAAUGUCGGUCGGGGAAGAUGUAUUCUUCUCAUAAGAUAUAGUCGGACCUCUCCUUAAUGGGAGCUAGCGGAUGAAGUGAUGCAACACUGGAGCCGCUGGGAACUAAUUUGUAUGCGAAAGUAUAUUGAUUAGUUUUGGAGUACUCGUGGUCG;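 also: selection with 25 µg/mL kanamycin versus none on LB agar overnight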
- setup_conditions: 37 °C
Give bare numbers.

{"residues": "CUAUAGCAAUAUUACGAGUC", "observed_value": -2.52}
{"residues": "AUUGAGCAAUAUUACGGCGC", "observed_value": -0.384}
{"residues": "UUCAAGCAAUAUUACGCGUU", "observed_value": -0.189}
{"residues": "CCAUAGCAAUAUUACGAACG", "observed_value": -0.0842}
{"residues": "UACGAGCAAUAUUACGGGUA", "observed_value": -1.43}

Give me self-splicing fitness (ln) for each of these sequences, listed below.
1. CUAUAGCAAUAUUACGGCCG
2. ACGUAGCAAUAUUACGUAGG
3. ACUAAGCAAUAUUACGCUGG
4. AAUCAGCAAUAUUACGGGGG
5. UUGUAGCAAUAUUACGUAAA
6. GCCCAGCAAUAUUACGGUGA
7. CCUUAGCAAUAUUACGUCAC

1: -0.314; 2: -1.73; 3: -2.93; 4: -1.66; 5: -0.0948; 6: 0.206; 7: -2.21

###

- protocol_summary: self-splicing fitness, log relative to wild type (ln ratio); higher = more splicing; Tetrahymena group I intron in knt gene, E. coli kanamycin selection, DiMSum; sequences stand for … in CUCUCU…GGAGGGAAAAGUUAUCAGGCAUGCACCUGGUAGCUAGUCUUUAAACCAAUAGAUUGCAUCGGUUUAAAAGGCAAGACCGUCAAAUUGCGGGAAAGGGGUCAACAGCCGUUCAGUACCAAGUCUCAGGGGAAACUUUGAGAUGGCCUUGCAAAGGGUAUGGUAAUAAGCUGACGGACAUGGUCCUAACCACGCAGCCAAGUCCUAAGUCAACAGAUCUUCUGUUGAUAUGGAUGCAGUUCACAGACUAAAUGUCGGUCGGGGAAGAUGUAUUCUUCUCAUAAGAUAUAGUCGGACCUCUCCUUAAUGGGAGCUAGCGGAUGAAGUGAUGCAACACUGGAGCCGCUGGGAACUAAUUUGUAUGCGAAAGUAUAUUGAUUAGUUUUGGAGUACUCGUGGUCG
- setup_conditions: 30 °C
Param threshold (-2) applies to self-splicing fitness (ln); output Met when value >= threshold, Not met when value < threshold.

Some solved entries appear below for comparison.
{"residues": "AAAGAGCAAUAUUACGGAGU", "label_value": "Not met"}
{"residues": "GGCCAGCAAUAUUACGCAAC", "label_value": "Met"}
{"residues": "GUGUAGCAAUAUUACGGAUG", "label_value": "Not met"}
{"residues": "UAAUAGCAAUAUUACGCGGC", "label_value": "Not met"}
{"residues": "ACUGAGCAAUAUUACGUGGG", "label_value": "Not met"}

Determine whether this sequence has self-splicing fitness (ln) no lower than -2: AAACAGCAAUAUUACGGCAC
Met

Determine whether this sequence has self-splicing fitness (ln) no lower than -2: GGCAAGCAAUAUUACGCGCU
Not met

Determine whether this sequence has self-splicing fitness (ln) no lower than -2: GUGAAGCAAUAUUACGGCGG
Met

Determine whether this sequence has self-splicing fitness (ln) no lower than -2: CUCAAGCAAUAUUACGUCAC
Not met

Determine whether this sequence has self-splicing fitness (ln) no lower than -2: CCUCAGCAAUAUUACGAGAC
Not met

###

- protocol_summary: self-splicing fitness, log relative to wild type (ln ratio); higher = more splicing; Tetrahymena group I intron in knt gene, E. coli kanamycin selection, DiMSum; sequences stand for … in CUCUCU…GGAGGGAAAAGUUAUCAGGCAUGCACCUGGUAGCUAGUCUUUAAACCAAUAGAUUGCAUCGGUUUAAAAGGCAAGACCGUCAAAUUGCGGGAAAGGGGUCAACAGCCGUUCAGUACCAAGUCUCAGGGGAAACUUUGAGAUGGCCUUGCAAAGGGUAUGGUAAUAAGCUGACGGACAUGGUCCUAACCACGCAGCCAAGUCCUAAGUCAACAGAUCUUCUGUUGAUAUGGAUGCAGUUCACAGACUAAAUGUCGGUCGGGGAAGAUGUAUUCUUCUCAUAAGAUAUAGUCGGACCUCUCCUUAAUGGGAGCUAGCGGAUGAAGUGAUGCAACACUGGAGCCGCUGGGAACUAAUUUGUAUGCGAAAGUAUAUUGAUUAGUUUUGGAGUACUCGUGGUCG
- setup_conditions: 30 °C
# class assignment by measured self-splicing fitness (ln): b0 = under -3, b1 = from -3 up to -2, b2 = -2 and over

{"residues": "UCAAAGCAAUAUUACGCUAU", "label_value": "b0"}
{"residues": "GGUGAGCAAUAUUACGCCGU", "label_value": "b1"}
{"residues": "AUACAGCAAUAUUACGCGGU", "label_value": "b0"}
{"residues": "AAAAAGCAAUAUUACGGGGU", "label_value": "b0"}
{"residues": "UCCCAGCAAUAUUACGCUGU", "label_value": "b0"}
{"residues": "CCGUAGCAAUAUUACGAUGC", "label_value": "b0"}
{"residues": "GAUAAGCAAUAUUACGCACA", "label_value": "b2"}
{"residues": "CGAUAGCAAUAUUACGUCUG", "label_value": "b2"}

Record AGGGAGCAAUAUUACGGGAG — which class?
b0

Record UGCAAGCAAUAUUACGAAUA — which class?
b2

Record GCAUAGCAAUAUUACGAACG — which class?
b2

Record AGCCAGCAAUAUUACGAAGG — which class?
b0

Record ACUCAGCAAUAUUACGACAU — which class?
b2

###

- protocol_summary: self-splicing fitness, log relative to wild type (ln ratio); higher = more splicing; Tetrahymena group I intron in knt gene, E. coli kanamycin selection, DiMSum; sequences stand for … in CUCUCU…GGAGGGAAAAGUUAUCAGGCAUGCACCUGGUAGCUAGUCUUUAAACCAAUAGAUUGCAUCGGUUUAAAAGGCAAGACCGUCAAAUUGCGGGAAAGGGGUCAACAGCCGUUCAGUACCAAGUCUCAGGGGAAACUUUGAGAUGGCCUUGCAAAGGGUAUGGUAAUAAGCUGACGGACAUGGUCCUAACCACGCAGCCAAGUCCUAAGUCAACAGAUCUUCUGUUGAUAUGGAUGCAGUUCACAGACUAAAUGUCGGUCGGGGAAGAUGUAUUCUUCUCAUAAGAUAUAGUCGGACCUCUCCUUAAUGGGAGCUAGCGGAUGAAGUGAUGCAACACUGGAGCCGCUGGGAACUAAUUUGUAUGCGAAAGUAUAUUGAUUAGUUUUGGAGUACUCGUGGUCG
- setup_conditions: 30 °C
Please go through the items and note down their self-splicing fitness (ln).

Recorded results for 3 sequences are shown here.
{"residues": "CAGCAGCAAUAUUACGGCGC", "self-splicing fitness (ln)": -2.93}
{"residues": "CGAAAGCAAUAUUACGAAAA", "self-splicing fitness (ln)": -2.38}
{"residues": "CAAAAGCAAUAUUACGCUGA", "self-splicing fitness (ln)": -3.25}

Give me self-splicing fitness (ln) for each of these sequences, listed below.
1. CUAUAGCAAUAUUACGAUUC
2. UUAAAGCAAUAUUACGAUGC
3. CUGCAGCAAUAUUACGAGAU
4. ACGCAGCAAUAUUACGGCCC
5. GGAAAGCAAUAUUACGACCG
6. CGGCAGCAAUAUUACGAGUC
7. AAGCAGCAAUAUUACGGAUC

1: -3.51; 2: -2.82; 3: -3.69; 4: -0.00164; 5: -0.761; 6: -1.86; 7: -1.81

Form field: reported self-splicing fitness (ln) of GACUAGCAAUAUUACGGCUC
0.193

###

- protocol_summary: self-splicing fitness, log relative to wild type (ln ratio); higher = more splicing; Tetrahymena group I intron in knt gene, E. coli kanamycin selection, DiMSum; sequences stand for … in CUCUCU…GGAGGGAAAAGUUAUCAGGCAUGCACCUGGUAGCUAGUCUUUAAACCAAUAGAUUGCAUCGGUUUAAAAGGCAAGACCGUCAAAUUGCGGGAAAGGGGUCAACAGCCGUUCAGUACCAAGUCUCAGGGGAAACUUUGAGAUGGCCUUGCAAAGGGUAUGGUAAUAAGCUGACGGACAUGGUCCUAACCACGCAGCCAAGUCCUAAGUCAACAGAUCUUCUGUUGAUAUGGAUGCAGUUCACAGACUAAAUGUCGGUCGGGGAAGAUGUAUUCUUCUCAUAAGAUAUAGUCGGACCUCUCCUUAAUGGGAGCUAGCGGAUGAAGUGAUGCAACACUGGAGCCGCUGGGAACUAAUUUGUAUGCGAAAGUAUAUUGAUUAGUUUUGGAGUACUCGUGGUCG
- setup_conditions: 30 °C
reported_property: self-splicing fitness (ln)
Give bare numbers.

Recorded results for 8 sequences are shown here.
{"residues": "CGCUAGCAAUAUUACGAACA", "self-splicing fitness (ln)": -0.88}
{"residues": "CGUUAGCAAUAUUACGAAAG", "self-splicing fitness (ln)": -1.11}
{"residues": "CCACAGCAAUAUUACGAACU", "self-splicing fitness (ln)": -2.98}
{"residues": "AGACAGCAAUAUUACGGUGC", "self-splicing fitness (ln)": -2.82}
{"residues": "CCAAAGCAAUAUUACGUCAA", "self-splicing fitness (ln)": -3.22}
{"residues": "GAUUAGCAAUAUUACGCCGA", "self-splicing fitness (ln)": -1.03}
{"residues": "GGCGAGCAAUAUUACGUGUC", "self-splicing fitness (ln)": -4.05}
{"residues": "CAAUAGCAAUAUUACGGGGU", "self-splicing fitness (ln)": -4.27}

Give me self-splicing fitness (ln) for each of these sequences, listed below.
1. GUCCAGCAAUAUUACGUCUU
2. CCUGAGCAAUAUUACGCGGG
3. CUUCAGCAAUAUUACGAAAU
4. ACGUAGCAAUAUUACGAAUC
5. UAGCAGCAAUAUUACGCGCU

-0.409
-3.41
-2.2
-4.01
-2.62

Give me self-splicing fitness (ln) for each of these sequences, listed below.
1. CAAAAGCAAUAUUACGGCUG
2. AGACAGCAAUAUUACGUCAC
3. GACCAGCAAUAUUACGUUAA
4. ACAAAGCAAUAUUACGUCGC
5. AUAGAGCAAUAUUACGAUGA
6. GCAUAGCAAUAUUACGUAAG
7. UUCAAGCAAUAUUACGAGAU
8. GGCAAGCAAUAUUACGAAGU

-1.3
-3
-1.13
-2.42
-2.14
-1.63
-3.07
-1.94

Give me self-splicing fitness (ln) for each of these sequences, listed below.
1. GCAGAGCAAUAUUACGUCGG
2. AGAAAGCAAUAUUACGUUAU
3. ACUUAGCAAUAUUACGCAGA
4. CGGCAGCAAUAUUACGUUGG

1: -2.57; 2: -2.29; 3: -2.32; 4: -2.38
